biological target: T1, hVEGF-A (human, UniProt P15692-4 27-191, limits assumed); assay: phage competition ELISA, soluble CKP
T1 construct: also called human VEGF-A; WT
The entries below are paired with their reported pIC50.
# log scale: pIC50 equals minus log10 of the concentration in mol/L

Illustrative cases are given below, each with its answer.
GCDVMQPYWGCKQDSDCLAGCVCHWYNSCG (designed binder, also called EM63) [VEGF_CKP9.63] :: 6.84
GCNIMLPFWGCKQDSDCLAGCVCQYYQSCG (designed binder, also called EM54) [VEGF_CKP9.54] :: 6.35
GCDPMQPFWGCKQDSDCLAGCVCRWYQSCG (designed binder) [VEGF_CKP9.59] :: 5.24
GCNLMLPFWGCKQDSDCLAGCVCRWYHSCG (designed binder) [VEGF_CKP9.20] :: 5.87
GCKLFEPLWGCKQDSDCLAGCVCRWYESCG (designed binder) [VEGF_CKP9.96] :: 4.31
GCQISQPFWGCKQDSDCLAGCVCHFYNSCG (designed binder) [VEGF_CKP9.3] :: 5.82
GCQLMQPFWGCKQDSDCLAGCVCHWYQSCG (designed binder, also called E9) [VEGF_CKP9] :: 5.87
GCDRMQPLWGCKQDSDCLAGCVCLWYKSCG (designed binder) [VEGF_CKP9.4] :: 5.71

Proceed to the following item.
Lab note: GCDVLQPFWGCKQDSDCLAGCVCHWYQSCG (designed binder) [VEGF_CKP9.2] gave pIC50 of 6.77

Source: patent US20200325187A1
